Test system: Candida albicans IAM 4888
Test: MIC, two-fold agar dilution method
Assay type: cell-based
Conditions: Sabouraud agar
Description: The minimum inhibitory concentrations (MIC) of the semibiosynthetic tallysomycin derivatives of the present invention were determined against fungi and gram-positive, gram-negative and acid-fast bacteria by the two-fold agar dilution method. Nutrient agar was used for bacteria and Sabouraud agar for fungi. The results are shown in the table below comparatively with tallysomycin A and B.
measurement_type: minimum inhibitory concentration (MIC)
Respond with the number and no other words.

Kindly note the recorded minimum inhibitory concentration (MIC) for Cc1c(N)nc(C(CC(N)=O)NCC(N)C(N)=O)nc1C(=O)NC(C(=O)NC(C)C(O)CC(=O)NC(C(=O)NC(OC1OC(C)C(N)C(O)C1O)C(O)c1nc(-c2nc(C(=O)NCCC[S+](C)C)cs2)cs1)C(C)O)C(OC1OC(CO)C(O)C(O)C1OC1OC(CO)C(O)C(OC(N)=O)C1O)c1cnc[nH]1.Cl.Cl.Cl.[Cl-] (stereo not drawn) [Tallysomycin S2b] , which is 25

Kindly note the recorded minimum inhibitory concentration (MIC) for CNCCCNC(=O)CC(N)CCCNC(=O)c1csc(-c2csc(C(O)C(NC(=O)C(NC(=O)CC(O)C(C)NC(=O)C(NC(=O)c3nc(C(CC(N)=O)NCC(N)C(N)=O)nc(N)c3C)C(OC3OC(CO)C(O)C(O)C3OC3OC(CO)C(O)C(OC(N)=O)C3O)c3c[nH]cn3)C(C)O)OC3OC(C)C(N)C(O)C3O)n2)n1 (stereo not drawn) [Tallysomycin S11a] , which is 1.6

---

Kindly state LD50 single dose for each of the entries shown.
test: Acute toxicity, single dose LD50; assay type: in vivo, dd mice; details: ip, 30 days observation, copper-chelated form unless otherwise stated
Returns: string containing the number followed by the unit.

Kindly note the recorded LD50 single dose for Cc1c(N)nc(C(CC(N)=O)NCC(N)C(N)=O)nc1C(=O)NC(C(=O)NC(C)C(O)CC(=O)NC(C(=O)NC(OC1OC(C)C(N)C(O)C1O)C(O)c1nc(-c2nc(C(=O)NCCN)cs2)cs1)C(C)O)C(OC1OC(CO)C(O)C(O)C1OC1OC(CO)C(O)C(OC(N)=O)C1O)c1c[nH]cn1 (stereo not drawn) , which is 19 mg/kg/day

Kindly note the recorded LD50 single dose for Cc1c(N)nc(C(CC(N)=O)NCC(N)C(N)=O)nc1C(=O)NC(C(=O)NC(C)C(O)CC(=O)NC(C(=O)NC(OC1OC(C)C(N)C(O)C1O)C(O)c1nc(-c2nc(C(=O)NCCCN(CCO)CCO)cs2)cs1)C(C)O)C(OC1OC(CO)C(O)C(O)C1OC1OC(CO)C(O)C(OC(N)=O)C1O)c1c[nH]cn1 (stereo not drawn) , which is 30 mg/kg/day

Kindly note the recorded LD50 single dose for Cc1c(N)nc(C(CC(N)=O)NCC(N)C(N)=O)nc1C(=O)NC(C(=O)NC(C)C(O)CC(=O)NC(C(=O)NC(OC1OC(C)C(N)C(O)C1O)C(O)c1nc(-c2nc(C(=O)NCCNCC(C)O)cs2)cs1)C(C)O)C(OC1OC(CO)C(O)C(O)C1OC1OC(CO)C(O)C(OC(N)=O)C1O)c1c[nH]cn1 (stereo not drawn) , which is 46 mg/kg/day

---

test system: lysogenic bacterium E. coli W1709 (λ); test: Prophage induction of lysogenic bacterium (ILB activity); assay type: cell-based; details: t/c ratio of plaque counts greater than 3.0
Kindly state ILB activity (minimum inducible concentration) for each of the entries shown.
# value in µg/mL; strip the unit string

Kindly note the recorded ILB activity (minimum inducible concentration) for Cc1c(N)nc(C(CC(N)=O)NCC(N)C(N)=O)nc1C(=O)NC(C(=O)NC(C)C(O)CC(=O)NC(C(=O)NC(OC1OC(C)C(N)C(O)C1O)C(O)c1nc(-c2nc(C(=O)NCCCNC(C)c3ccccc3)cs2)cs1)C(C)O)C(OC1OC(CO)C(O)C(O)C1OC1OC(CO)C(O)C(OC(N)=O)C1O)c1c[nH]cn1 (stereo not drawn) [Tallysomycin S14b] , which is 0.04

Kindly note the recorded ILB activity (minimum inducible concentration) for Cc1c(N)nc(C(CC(N)=O)NCC(N)C(N)=O)nc1C(=O)NC(C(=O)NC(C)C(O)CC(=O)NC(C(=O)NC(OC1OC(C)C(N)C(O)C1O)C(O)c1nc(-c2nc(C(=O)NCCCC(N)CC(=O)NCCC[S+](C)C)cs2)cs1)C(C)O)C(OC1OC(CO)C(O)C(O)C1OC1OC(CO)C(O)C(OC(N)=O)C1O)c1c[nH]cn1 (stereo not drawn) , which is 0.31

Kindly note the recorded ILB activity (minimum inducible concentration) for Cc1c(N)nc([C@H](CC(N)=O)NC[C@@H](N)C(N)=O)nc1C(=O)N[C@H](C(=O)N[C@H](C)[C@@H](O)CC(=O)N[C@@H](C(=O)NC(O[C@@H]1O[C@@H](C)[C@@H](N)[C@@H](O)[C@H]1O)C(O)c1nc(-c2nc(C(=O)NCCCNCCCCN)cs2)cs1)[C@@H](C)O)C(O[C@@H]1O[C@@H](CO)[C@H](O)[C@@H](O)[C@@H]1O[C@H]1O[C@H](CO)[C@@H](O)[C@@H](OC(N)=O)[C@@H]1O)c1cnc[nH]1 (stereo partly drawn) [Tallysomycin B, reference compound] , which is 0.01
